Measured values drawn from patent US7465736B2 for this set.

Value Kind: IC50

Form entry - test system: rat JNK3 (Rattus norvegicus, UniProt P49187); read-out: IC50; compound: CCC1=CS/C(=C(/C#N)c2ccnc(NC3CCN(S(C)(=O)=O)CC3)n2)N1
Sequence (P49187 whole entry): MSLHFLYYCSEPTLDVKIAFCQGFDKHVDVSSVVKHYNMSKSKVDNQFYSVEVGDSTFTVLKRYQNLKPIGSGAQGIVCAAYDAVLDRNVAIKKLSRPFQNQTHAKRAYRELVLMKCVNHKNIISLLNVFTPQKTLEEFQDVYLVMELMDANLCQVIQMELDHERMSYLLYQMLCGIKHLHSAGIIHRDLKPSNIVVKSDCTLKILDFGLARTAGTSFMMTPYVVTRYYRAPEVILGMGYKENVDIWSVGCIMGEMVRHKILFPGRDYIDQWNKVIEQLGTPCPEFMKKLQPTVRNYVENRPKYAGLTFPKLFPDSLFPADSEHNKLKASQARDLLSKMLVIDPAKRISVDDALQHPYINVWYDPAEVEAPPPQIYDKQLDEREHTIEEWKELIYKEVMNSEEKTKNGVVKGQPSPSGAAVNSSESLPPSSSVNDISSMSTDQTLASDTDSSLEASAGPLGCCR
< 10 µM

Param readout= IC50; system= rat JNK3 (Rattus norvegicus, UniProt P49187); entry= N#C/C(=C1\NC(C(=O)O)=CS1)c1ccnc(NCCCN2CCCC2=O)n1 ; returns value.
< 10 µM
